// data source = ChEMBL document CHEMBL4819019

# EXPERIMENT SUMMARY: Cytotoxicity against human skin fibroblasts assessed as cell viability measured after 72 hrs by MTT assay
# Format: cell-based, Fibroblast
Just so you know, the groups by CC50 at 72 h go like this: 0 = under 2 µg/mL, 1 = from 2 µg/mL up to 3 µg/mL, 2 = 3 µg/mL and over

Lab note: sort CCCCCCCCCCCCCC(=O)NCCC[N+](C)(C)Cc1ccccc1.[Cl-] into the matching CC50 at 72 h band.
2

Lab note: sort CCCCCCCCCCCCCC(=O)NCC[N+](C)(C)Cc1cnc(C)c2c1COC(C)(CCC)O2.[Cl-] (stereo unspecified) into the matching CC50 at 72 h band.
1

Lab note: sort CCCCCCCCCCCCCC(=O)NCCC[N+](C)(C)Cc1cnc(C)c2c1COC(C)(C)O2.[Cl-] into the matching CC50 at 72 h band.
2

Lab note: sort CCCCCCCCCCCCCC(=O)NCC[N+](C)(C)Cc1nc(C)c2c(c1CO)COC(C)(C)O2.[Cl-] into the matching CC50 at 72 h band.
2

Lab note: sort CCCCCCCCCCCCCC(=O)OCC[N+](C)(C)Cc1nc(C)c2c(c1CO)COC(C)(C)O2.[Cl-] into the matching CC50 at 72 h band.
1

Lab note: sort CCCCCCCCCCCCCC(=O)OCC[N+](C)(C)Cc1cnc(C)c2c1COC(C)(C)O2.[Cl-] into the matching CC50 at 72 h band.
0

Lab note: sort [H]/N=C(\N/C(=N/[H])NCCCCCCNC(=N)NC(=N)Nc1ccc(Cl)cc1)Nc1ccc(Cl)cc1 into the matching CC50 at 72 h band.
2

Lab note: sort CCCCCCCCCCCCCC(=O)OCC[N+](C)(C)Cc1cnc(C)c2c1COC(CCC)O2.[Cl-] (stereo unspecified) into the matching CC50 at 72 h band.
1

Lab note: sort CCCCCCCCCCCC(=O)OCCC[N+](C)(C)Cc1cnc(C)c2c1COC(CCC)O2.[Cl-] (stereo unspecified) into the matching CC50 at 72 h band.
2

Lab note: sort CCCCCCCCCCCC(=O)NCC[N+](C)(C)Cc1cnc(C)c2c1COC(C)(CCC)O2.[Cl-] (stereo unspecified) into the matching CC50 at 72 h band.
0

----------
# EXPERIMENT SUMMARY: Genotoxicity in Salmonella typhimurium TA1535/pSK1002 assessed as DNA-damage activity by measuring beta-galactosidase activity at 7.5 ug/ml measured by SOS-chromotest relative to solvent control
# Format: toxicity
# TEST CONTEXT: salmonella enterica subsp. enterica serovar typhimurium; dose 7.5 µg/ml
OBSERVATION TYPE: Ratio

What measured Ratio goes with CCCCCCCCCCCC(=O)OCCC[N+](C)(C)Cc1cnc(C)c2c1COC(CCC)O2.[Cl-] (centres undefined) ?
1.4

What measured Ratio goes with CCCCCCCCCCCCCC(=O)NCCC[N+](C)(C)Cc1cnc(C)c2c1COC(C)(C)O2.[Cl-] ?
1.5

What measured Ratio goes with CCCCCCCCCCCCCC(=O)NCC[N+](C)(C)Cc1nc(C)c2c(c1CO)COC(C)(C)O2.[Cl-] ?
1.6

What measured Ratio goes with CCCCCCCCCCCC(=O)NCC[N+](C)(C)Cc1cnc(C)c2c1COC(C)(CCC)O2.[Cl-] (centres undefined) ?
1.6

----------
# Test system: Bacillus subtilis
# EXPERIMENT SUMMARY: Antibacterial activity against Bacillus subtilis 168 measured after 24 hrs by broth microdilution method
# Format: functional
OBSERVATION TYPE: MIC (µg/mL)
The response must be a number in µg/mL with no trailing unit.

What measured MIC goes with CCCCCCCCCCCC(=O)OCCC[N+](C)(C)Cc1cnc(C)c2c1COC(C)(C)O2.[Cl-] ?
1

What measured MIC goes with CCCCCCCCCCCCCC(=O)OCC[N+](C)(C)Cc1nc(C)c2c(c1CO)COC(CCC)O2.[Cl-] (centres undefined) ?
2

What measured MIC goes with CCCCCCCCCCCC(=O)NCCC[N+](C)(C)Cc1cnc(C)c2c1COC(C)(C)O2.[Cl-] ?
8

What measured MIC goes with CCCCCCCCCCCCCCCC(=O)OCCC[N+](C)(C)Cc1cnc(C)c2c1COC(C)(C)O2.[Cl-] ?
8

What measured MIC goes with CCCCCCCCCCCCCCCC(=O)OCC[N+](C)(C)Cc1cnc(C)c2c1COC(C)(C)O2.[Cl-] ?
1

What measured MIC goes with CCCCCCCCCCCCCC(=O)NCCC[N+](C)(C)Cc1cnc(C)c2c1COC(CCCCC)O2.[Cl-] (centres undefined) ?
1

What measured MIC goes with CCCCCCCCCCCCCCCC(=O)NCC[N+](C)(C)Cc1cnc(C)c2c1COC(C)(CCC)O2.[Cl-] (centres undefined) ?
16

----------
# EXPERIMENT SUMMARY: Lipophilicity, logP of the compound
# Assay type: physicochemical
# TEST CONTEXT: octanol/water
OBSERVATION TYPE: logP
Keep it simple and answer with nothing but the number.

What measured logP goes with CCCCCCCCCCCCCCCC(=O)NCCC[N+](C)(C)Cc1cnc(C)c2c1COC(C)(CCC)O2.[Cl-] (stereo not given) ?
3.19

What measured logP goes with CCCCCCCCCCCCCCCC(=O)OCCC[N+](C)(C)Cc1cnc(C)c2c1COC(C)(C)O2.[Cl-] ?
3.09

What measured logP goes with CCCCCCCCCCCCCC(=O)OCCC[N+](C)(C)Cc1nc(C)c2c(c1CO)COC(C)(C)O2.[Cl-] ?
1.52

What measured logP goes with [H]/N=C(\N/C(=N/[H])NCCCCCCNC(=N)NC(=N)Nc1ccc(Cl)cc1)Nc1ccc(Cl)cc1 ?
4.51

What measured logP goes with CCCCCCCCCCCC(=O)NCCC[N+](C)(C)Cc1cnc(C)c2c1COC(C)(C)O2.[Cl-] ?
0.58

What measured logP goes with CCCCCCCCCCCCCC(=O)NCCC[N+](C)(C)Cc1cnc(C)c2c1COC(CCCCC)O2.[Cl-] (stereo not given) ?
3.19

What measured logP goes with CCCCCCCCCCCC(=O)OCC[N+](C)(C)Cc1cnc(C)c2c1COC(CCC)O2.[Cl-] (stereo not given) ?
2.08

What measured logP goes with CCCCCCCCCCCCCC(=O)NCCC[N+](C)(C)Cc1cnc(C)c2c1COC(C)(CCC)O2.[Cl-] (stereo not given) ?
2.3

What measured logP goes with CCCCCCCCCCCCCCCC(=O)NCCC[N+](C)(C)Cc1cnc(C)c2c1COC(C)(C)O2.[Cl-] ?
2.36

What measured logP goes with CCCCCCCCCCCCCC(=O)OCC[N+](C)(C)Cc1cnc(C)c2c1COC(C)(C)O2.[Cl-] ?
2.14

What measured logP goes with CCCCCCCCCCCCCCCC(=O)OCC[N+](C)(C)Cc1cnc(C)c2c1COC(CCC)O2.[Cl-] (stereo not given) ?
3.86

What measured logP goes with CCCCCCCCCCCC(=O)NCC[N+](C)(C)Cc1cnc(C)c2c1COC(C)(CCC)O2.[Cl-] (stereo not given) ?
1.35

What measured logP goes with CCCCCCCCCCCCCCCCCC(=O)NCCC[N+](C)(C)Cc1cnc(C)c2c1COC(C)(CCC)O2.[Cl-] (stereo not given) ?
4.08

What measured logP goes with CCCCCCCCCCCCCC(=O)OCCC[N+](C)(C)Cc1cnc(C)c2c1COC(CCCCCCCC)O2.[Cl-] (stereo not given) ?
5.25

What measured logP goes with CCCCCC(=O)NCCC[N+](C)(C)Cc1cnc(C)c2c1COC(C)(C)O2.[Cl-] ?
-2.09

What measured logP goes with CCCCCCCCCCCCCC(=O)OCCC[N+](C)(C)Cc1cnc(C)c2c1COC(CCCCC)O2.[Cl-] (stereo not given) ?
3.92

What measured logP goes with CCCCCCCCCCCCCC(=O)OCCC[N+](C)(C)Cc1nc(C)c2c(c1CO)COC(CCC)O2.[Cl-] (stereo not given) ?
2.35

What measured logP goes with CCCCCCCCCCCC(=O)OCCC[N+](C)(C)Cc1cnc(C)c2c1COC(C)(C)O2.[Cl-] ?
1.31

What measured logP goes with CCCCCCCCCC(C)C1OCc2c(C[N+](C)(C)CCCNC(=O)CCCCC)cnc(C)c2O1.[Cl-] (stereo not given) ?
2.34

What measured logP goes with CCCCCCCCCCCCCC(=O)NCCC[N+](C)(C)Cc1cnc(C)c2c1COC(C)(C)O2.[Cl-] ?
1.47

What measured logP goes with CCCCCCCC[N+](C)(C)Cc1nc(C)c2c(c1CO)COC(C)(C)O2.[Cl-] ?
-0.78

What measured logP goes with CCCCCCCCCCCCCC(=O)NCC[N+](C)(C)Cc1cnc(C)c2c1COC(C)(C)O2.[Cl-] ?
1.41

What measured logP goes with CCCCCCCCCCCC(=O)OCC[N+](C)(C)Cc1cnc(C)c2c1COC(C)(C)O2.[Cl-] ?
1.25

What measured logP goes with CCCCCCCCCCCCCC(=O)OCC[N+](C)(C)Cc1cnc(C)c2c1COC(CCC)O2.[Cl-] (stereo not given) ?
2.97

What measured logP goes with CCCCCCCCCCCCCCCC(=O)NCC[N+](C)(C)Cc1cnc(C)c2c1COC(C)(C)O2.[Cl-] ?
2.93

What measured logP goes with CCCCCCCCCCCCCCCCCC(=O)NCC[N+](C)(C)Cc1cnc(C)c2c1COC(C)(C)O2.[Cl-] ?
3.19

What measured logP goes with CCCCCCCCCCCCCCCC(=O)OCCC[N+](C)(C)Cc1cnc(C)c2c1COC(CCC)O2.[Cl-] (stereo not given) ?
3.92

What measured logP goes with CCCCCCCCCCCCCC(=O)NCC[N+](C)(C)Cc1cnc(C)c2c1COC(C)(CCC)O2.[Cl-] (stereo not given) ?
2.24

What measured logP goes with CCCCCCCCCCCC(=O)OCCC[N+](C)(C)Cc1cnc(C)c2c1COC(CCC)O2.[Cl-] (stereo not given) ?
2.14

What measured logP goes with CCCCCCCCCCCCCC(=O)NCC[N+](C)(C)Cc1nc(C)c2c(c1CO)COC(CCC)O2.[Cl-] (stereo not given) ?
1.56

What measured logP goes with CCCCCCCCCCCC(=O)NCC[N+](C)(C)Cc1cnc(C)c2c1COC(C)(C)O2.[Cl-] ?
0.52

What measured logP goes with CCCCCCCCCCCCCC(=O)NCCC[N+](C)(C)Cc1nc(C)c2c(c1CO)COC(CCC)O2.[Cl-] (stereo not given) ?
1.62

What measured logP goes with CCCCCCCCCCCCCC(=O)NCCC[N+](C)(C)Cc1ccccc1.[Cl-] ?
2.43

What measured logP goes with CCCCCCCCCCCCCC(=O)OCCC[N+](C)(C)Cc1cnc(C)c2c1COC(CCC)O2.[Cl-] (stereo not given) ?
3.03

What measured logP goes with CCCCCCCCCCCCCCCC(=O)NCC[N+](C)(C)Cc1cnc(C)c2c1COC(C)(CCC)O2.[Cl-] (stereo not given) ?
3.13
